target: recombinant human SAE enzyme (Homo sapiens); assay: SAE HTRF Enzyme Assay; details: class symbols A-C

compound	system-tested	IC50
NS(=O)(=O)OC[C@H]1C[C@@H](Nc2ncncc2C(=O)c2ccn(Cc3ccc(F)c(C4CC4)c3)n2)C[C@@H]1O	recombinant human SAE enzyme (Homo sapiens)	< 10 nM
NS(=O)(=O)OC[C@H]1C[C@@H](Nc2ncncc2C(=O)c2ccn(Cc3ccc(F)c(Br)c3)c2)C[C@@H]1O	recombinant human SAE enzyme (Homo sapiens)	< 10 nM
Cc1cn(Cc2cccc(Br)c2)cc1C(=O)c1cncnc1N[C@@H]1C[C@H](COS(N)(=O)=O)[C@@H](O)[C@@H]1F	recombinant human SAE enzyme (Homo sapiens)	10 to 100 nM
NS(=O)(=O)OC[C@H]1C[C@@H](Nc2ncncc2C(=O)c2ccn(Cc3ccc(F)c(Cl)c3)c2)[C@@H](F)[C@@H]1O	recombinant human SAE enzyme (Homo sapiens)	< 10 nM
NS(=O)(=O)OC[C@H]1C[C@@H](Nc2ccncc2C(=O)c2ccn(Cc3ccc(Cl)c(Cl)c3)n2)C[C@@H]1O	recombinant human SAE enzyme (Homo sapiens)	< 10 nM
NS(=O)(=O)OC[C@H]1C[C@@H](Nc2ccncc2C(=O)c2ccn(Cc3ccc(F)c(Cl)c3)n2)C[C@@H]1O	recombinant human SAE enzyme (Homo sapiens)	< 10 nM
CC(c1cccc(Cl)c1)n1ccc(C(=O)c2cncnc2N[C@@H]2C[C@H](COS(N)(=O)=O)[C@@H](O)C2)n1 (single isomer, unassigned) [Compound I-360]	recombinant human SAE enzyme (Homo sapiens)	< 10 nM
NS(=O)(=O)OC[C@H]1C[C@@H](Nc2ncncc2C(=O)c2ccn(Cc3cc(F)cc(C(F)(F)F)c3)n2)[C@H](O)[C@@H]1O	recombinant human SAE enzyme (Homo sapiens)	< 10 nM
NS(=O)(=O)OC[C@H]1C[C@@H](Nc2ncnc(Cl)c2C(=O)c2ccn(Cc3cccc(Cl)c3)n2)C[C@@H]1O	recombinant human SAE enzyme (Homo sapiens)	10 to 100 nM
Cc1cc(C(=O)c2cncnc2N[C@@H]2C[C@H](COS(N)(=O)=O)[C@@H](O)C2)nn1Cc1cccc(Br)c1	recombinant human SAE enzyme (Homo sapiens)	< 10 nM
NS(=O)(=O)OC[C@H]1C[C@@H](Nc2ncncc2C(=O)c2ccn(Cc3ccc(F)c4ccccc34)n2)[C@H](O)[C@@H]1O	recombinant human SAE enzyme (Homo sapiens)	< 10 nM
NS(=O)(=O)OC[C@H]1C[C@@H](Nc2ccncc2C(=O)c2ccn(Cc3ccc(F)c(C(F)(F)F)c3)n2)C[C@@H]1O	recombinant human SAE enzyme (Homo sapiens)	< 10 nM
CC#CCCn1ccc(C(=O)c2cncnc2N[C@@H]2C[C@H](COS(N)(=O)=O)[C@@H](O)C2)n1	recombinant human SAE enzyme (Homo sapiens)	100 to 1000 nM

----------
Here the recorded inhibition at 0.111 µM is given for each entry.
Molecular target: recombinant human SAE enzyme (Homo sapiens, UniProt Q9UBT2)
Sequence (Q9UBT2 1-640): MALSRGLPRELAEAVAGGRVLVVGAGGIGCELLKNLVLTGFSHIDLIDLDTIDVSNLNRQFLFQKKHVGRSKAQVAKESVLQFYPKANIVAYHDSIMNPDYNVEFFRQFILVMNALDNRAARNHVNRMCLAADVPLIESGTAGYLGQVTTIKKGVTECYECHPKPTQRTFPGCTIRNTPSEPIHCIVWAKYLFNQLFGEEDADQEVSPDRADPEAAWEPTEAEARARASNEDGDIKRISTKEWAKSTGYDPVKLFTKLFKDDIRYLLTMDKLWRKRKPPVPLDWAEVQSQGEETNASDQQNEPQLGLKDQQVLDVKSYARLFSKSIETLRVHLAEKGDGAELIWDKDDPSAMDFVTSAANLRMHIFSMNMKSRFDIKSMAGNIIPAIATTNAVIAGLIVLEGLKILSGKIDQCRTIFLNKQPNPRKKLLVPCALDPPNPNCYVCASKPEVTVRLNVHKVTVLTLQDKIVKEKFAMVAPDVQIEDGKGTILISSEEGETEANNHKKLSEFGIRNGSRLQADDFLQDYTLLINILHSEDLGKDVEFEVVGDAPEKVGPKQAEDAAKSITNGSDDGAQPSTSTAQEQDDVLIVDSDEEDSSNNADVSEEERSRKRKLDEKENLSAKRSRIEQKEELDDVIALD
Sequence (Q9UBE0 1-346 partner): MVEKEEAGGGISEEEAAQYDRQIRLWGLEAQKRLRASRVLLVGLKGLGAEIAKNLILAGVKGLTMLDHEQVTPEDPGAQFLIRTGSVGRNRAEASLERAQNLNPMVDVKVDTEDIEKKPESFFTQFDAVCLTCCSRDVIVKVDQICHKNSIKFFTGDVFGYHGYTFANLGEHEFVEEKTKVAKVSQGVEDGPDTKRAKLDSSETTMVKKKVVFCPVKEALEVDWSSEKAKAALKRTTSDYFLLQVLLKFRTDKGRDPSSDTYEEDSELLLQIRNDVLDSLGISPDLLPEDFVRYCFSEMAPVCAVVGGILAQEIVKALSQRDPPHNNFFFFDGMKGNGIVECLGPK
Assay: SAE HTRF Enzyme Assay
Assay type: biochemical
Conditions: compound concentration 0.111 μM; read-out: Percent Inhibition
Experimental: The SAE enzymatic reaction totals 50 μl and contains 50 mM HEPES Hemisodium (pH 7.5), 0.05% BSA, 5 mM MgCl2, 0.5 μM ATP, 250 μM GSH, 0.01 μM Ubc9-GST, 0.125 μM Sumo-Flag and 0.11 nM recombinant human SAE enzyme. […] After incubation for 2 hours at 24° C., quantification of FRET is performed on the Pherostar™ (BMG Labtech). Percentage inhibition values at a single concentration or enzyme inhibition (IC50) values are determined from those curves. […]
readout-type: inhibition at 0.111 µM (%)

> print(dat)
                     structure.smiles.string  value.unit  inequality.sign  endpoint.result
 1  NS(=O)(=O)OC[C@H]1C[C@@H](Nc2ncncc2C(=O)c2cc(F)n(Cc3cccc(Br)c3)c2)[C@@H](F)[C@@H]1O           %                =               99
 2  C#CCn1ccc(C(=O)c2cncnc2N[C@@H]2C[C@H](COS(N)(=O)=O)[C@@H](O)C2)c1           %                =               82
 3  NS(=O)(=O)OC[C@H]1C[C@@H](Nc2ncncc2C(=O)c2ccn(Cc3cc(F)cc(F)c3)n2)C[C@@H]1O           %                =               91
 4  NS(=O)(=O)OC[C@H]1C[C@@H](Nc2ncncc2C(=O)c2ccn(Cc3cc(F)cc(Cl)c3)n2)[C@H](O)[C@@H]1O           %                =               98
 5  NS(=O)(=O)OC[C@H]1C[C@@H](Nc2ncncc2C(=O)c2ccn(Cc3cccc(Cl)n3)n2)C[C@@H]1O           %                =               99
 6  NS(=O)(=O)OC[C@H]1C[C@@H](Nc2ncncc2C(=O)c2ccn(Cc3ccc(F)c(Cl)c3)c2)[C@@H](F)[C@@H]1O           %                =               99
 7  Cn1nc(C(F)(F)F)cc1Cn1ccc(C(=O)c2cncnc2N[C@@H]2C[C@H](COS(N)(=O)=O)[C@@H](O)C2)c1           %                =               93
 8  NS(=O)(=O)OC[C@H]1C[C@@H](Nc2ncncc2C(=O)c2ccn(Cc3ccc(SC(F)(F)F)cc3)n2)[C@H](O)[C@@H]1O           %                =               95
 9  NS(=O)(=O)OC[C@H]1C[C@@H](Nc2ncncc2C(=O)c2cc(Br)n(Cc3cccc(Br)c3)c2)[C@@H](F)[C@@H]1O           %                =               99
10  CC(C)(O)c1cccc(Cn2ccc(C(=O)c3cncnc3N[C@@H]3C[C@H](COS(N)(=O)=O)[C@@H](O)C3)n2)n1           %                =               76
11  NS(=O)(=O)OC[C@H]1C[C@@H](Nc2ncncc2C(=O)c2ccn(Cc3cccc(Cl)c3)c2)[C@@H](F)[C@@H]1O           %                >               99
12  NS(=O)(=O)OC[C@H]1C[C@@H](Nc2ncncc2C(=O)c2ccn(Cc3ccc(Cl)s3)n2)C[C@@H]1O           %                =               99
13  NS(=O)(=O)OC[C@H]1C[C@@H](Nc2ncncc2C(=O)c2ccn(Cc3c(F)cc(F)cc3F)n2)[C@H](O)[C@@H]1O           %                >               99
